measurement.target: HIV-1 integrase / human LEDGF/p75 complex
assay.procedure: blockers of LEDGF/p75-dependent integrase activity – biochemical, TR-FRET, dose response (AID 1053172)
condition.info: TR-FRET integrase-LEDGF/p75 DNA integration
Activity calls are given as the source filed them. No rule for the calls is given here.
Labels: Y for active, N for inactive

compound | class.assignment
CCOc1ccc(Nc2ccc(N)c(S(=O)(=O)O)c2)cc1 | N
O=C(O)c1ccc(-n2c(-c3cc(-c4ccco4)[nH]n3)n[nH]c2=S)cc1 | Y
CC1=CC(C)(C)N2C(=O)C(=Nc3ccc(O)cc3)c3cccc1c32 | N
Cn1c(N)c(C(=O)COC(=O)c2cc(-c3ccco3)nc3ccccc23)c(=O)n(C)c1=O | Y
O=C(Cc1csc(N2CCOCC2)n1)N/N=C/c1ccc(O)c(O)c1O | Y
COc1cc(-c2cc(=O)c3c(O)c(OC)c(OC)c(O)c3o2)ccc1O | Y
c1coc(-c2nnc(-c3ccco3)nn2)c1 | Y
CCOc1cccc(N2C(=O)/C(=C/c3ccco3)C(=O)NC2=S)c1 | Y
COc1ccc(NC(=S)Nc2ccc3nsnc3c2)cc1 | N
O=C(O)Cc1c[nH]c2cccc(O)c12 | Y
C=C(C)C(=O)Nc1cccc(C2=NOC3(C2)C[C@H](C(N)=O)N(C(=O)/C=C/C)C3)c1 (stereo partly specified) | Y

###

measurement.target: HIV-1 integrase / human LEDGF/p75 complex
assay.procedure: blockers of LEDGF/p75-dependent integrase activity – biochemical, TR-FRET, dose response (AID 1053172)
condition.info: TR-FRET integrase-LEDGF/p75 DNA integration
The source made the active and inactive calls. How the calls were made is not given here.
endpoint.label: IC50

compound | measurement.target | measured
O=C(Cc1cnn(-c2ccccc2)c1)c1ccc(O)c(O)c1O | HIV-1 integrase / human LEDGF/p75 complex | > 36.5 µM (inactive)
O=C(O)c1cc(O)c2c(c1)[C@H]([C@H]1c3cc(C(=O)O)cc(O)c3C(=O)c3c(O[C@@H]4O[C@H](CO)[C@@H](O)[C@H](O)[C@H]4O)cccc31)c1cccc(OC3O[C@H](CO)[C@@H](O)[C@H](O)[C@H]3O)c1C2=O (some centres not stated) | HIV-1 integrase / human LEDGF/p75 complex | 1.05 µM
CCN=c1scc(C)n1/N=C/c1ccc(O)c(O)c1O | HIV-1 integrase / human LEDGF/p75 complex | 5.61 µM
C=C(C)C(=O)Nc1cccc(C2=NOC3(C2)C[C@@H](C(N)=O)N(C(=O)/C(C)=C/C)C3)c1 (some centres not stated) | HIV-1 integrase / human LEDGF/p75 complex | 3.25 µM
O=C1S/C(=C\C=C\c2ccco2)C(=O)N1c1ccc(O)cc1 | HIV-1 integrase / human LEDGF/p75 complex | 9.56 µM
COC1=CC(=O)C(C2CC(=O)c3c(O)cc(O)cc3O2)=CC1=O (configuration not stated) | HIV-1 integrase / human LEDGF/p75 complex | > 36.5 µM (inactive)
Cc1ccc(N2C(=O)NC(=O)/C(=C/c3ccoc3)C2=O)cc1 | HIV-1 integrase / human LEDGF/p75 complex | 2 µM
Cc1c(CC(=O)N2CCN(C(=O)C3COc4ccccc4O3)CC2)c(=O)oc2c(O)c(O)ccc12 (configuration not stated) | HIV-1 integrase / human LEDGF/p75 complex | 0.408 µM
Cc1cnc(C=NNC(N)=S)c2cccc(N)c12 | HIV-1 integrase / human LEDGF/p75 complex | inactive
CC(=O)Nc1ccc(C(=O)/C=C/c2ccco2)cc1 | HIV-1 integrase / human LEDGF/p75 complex | 9.78 µM
O=Cc1ccc2oc3nc4n(c(=O)c3c(=O)c2c1)CCCS4 | HIV-1 integrase / human LEDGF/p75 complex | 1.81 µM
O=C(Cn1cnc([N+](=O)[O-])n1)c1ccc(O)c(O)c1 | HIV-1 integrase / human LEDGF/p75 complex | inactive
Nc1c(C(=O)N/N=C/c2cccnc2)oc2nc(-c3ccco3)cc(-c3ccco3)c12 | HIV-1 integrase / human LEDGF/p75 complex | > 36.6 µM (inactive)
Oc1ccc(/C=N/NC(=S)Nc2cccnc2)cc1O | HIV-1 integrase / human LEDGF/p75 complex | 4.5 µM
N#Cc1c(NC(=O)CSc2ncnc3sccc23)oc(-c2ccco2)c1-c1ccco1 | HIV-1 integrase / human LEDGF/p75 complex | inactive
NC1=CC(=O)C(=O)c2cccnc21 | HIV-1 integrase / human LEDGF/p75 complex | 2.14 µM
Nc1ccc2cc3ccc(N)cc3nc2c1 | HIV-1 integrase / human LEDGF/p75 complex | 4.46 µM
CCOc1ccc(NC(=O)CN(C)C(=O)c2cc3c(s2)CCC3)cc1OCC | HIV-1 integrase / human LEDGF/p75 complex | 9.57 µM
O=C1C(=Cc2ccco2)CCC1=Cc1ccco1 | HIV-1 integrase / human LEDGF/p75 complex | 1.92 µM
O=C1/C(=C/C=C/c2ccco2)SC(=S)N1c1ccc(O)cc1 | HIV-1 integrase / human LEDGF/p75 complex | 2.66 µM
CCOC(=O)c1cc2c(=Cc3ccc(N(C)C)cc3)c3ccccc3n2[n+]1C | HIV-1 integrase / human LEDGF/p75 complex | inactive
C=C(C)C(=O)Nc1cccc(C2=NOC3(C2)C[C@@H](C(N)=O)N(C(=O)C(=C)C)C3)c1 (some centres not stated) | HIV-1 integrase / human LEDGF/p75 complex | 5.92 µM
O=C(NCCCO)c1ccc2nc(-c3ccco3)c(-c3ccco3)nc2c1 | HIV-1 integrase / human LEDGF/p75 complex | 2.85 µM
O=C1NC(=Nc2ccc(O)cc2)S/C1=C\C=C\c1ccco1 | HIV-1 integrase / human LEDGF/p75 complex | 4.08 µM
O=C1/C(=C\c2ccc(O)c(O)c2)C(c2ccccc2)=NN1c1ccccc1 | HIV-1 integrase / human LEDGF/p75 complex | inactive
O=c1cc(-c2ccc(O)cc2)oc2c(O)c(O)c(O)c(O)c12 | HIV-1 integrase / human LEDGF/p75 complex | 0.341 µM
COc1c(-c2ccc(O)c(O)c2)oc2cc(O)cc(O)c2c1=O | HIV-1 integrase / human LEDGF/p75 complex | 1.9 µM
O=c1cc2c(=O)oc3cc(O)c(O)oc3c2c(O)c1O | HIV-1 integrase / human LEDGF/p75 complex | 0.244 µM
O=C1c2cc(O)c(O)cc2OC(c2ccc(O)c(O)c2)C1O (configuration not stated) | HIV-1 integrase / human LEDGF/p75 complex | 4.69 µM
CC(C(=O)O)N1C(=O)/C(=C/C=C/c2ccco2)SC1=S (configuration not stated) | HIV-1 integrase / human LEDGF/p75 complex | 0.452 µM
Nc1ccc2nc3c(=O)[nH]c(=S)[nH]c3nc2c1 | HIV-1 integrase / human LEDGF/p75 complex | 1.36 µM
O=C(O)c1ccc(-n2cccc2/C=C2/NC(=O)N(c3cccc(Cl)c3)C2=O)cc1 | HIV-1 integrase / human LEDGF/p75 complex | 4.25 µM
Cc1ccc(/C=C/C(=O)Nc2ccc([N+](=O)[O-])c(NC(=O)/C=C/c3ccc(C)o3)c2)o1 | HIV-1 integrase / human LEDGF/p75 complex | inactive
Cc1ccc(-c2nn(-c3ccccc3)cc2/C=C2\SC(=S)N(CCCCCC(=O)O)C2=O)o1 | HIV-1 integrase / human LEDGF/p75 complex | inactive
C=C(C)C(=O)Nc1cccc(C2=NOC3(C2)C[C@@H](C(N)=O)N(C(=O)/C=C/C=C/C)C3)c1 (some centres not stated) | HIV-1 integrase / human LEDGF/p75 complex | 3.25 µM
O=C1NC(=S)NC(=O)C1=Cc1cccn1-c1ccc(O)cc1 | HIV-1 integrase / human LEDGF/p75 complex | 2.21 µM
N#C/C(=C\c1cc(O)c(O)c(O)c1)C(N)=O | HIV-1 integrase / human LEDGF/p75 complex | 9.6 µM
Oc1ccc(NCc2cccc(OCc3ccccc3)c2)cc1 | HIV-1 integrase / human LEDGF/p75 complex | > 36.5 µM (inactive)
O=C(Cc1nnc(NC(=O)c2ccccc2)s1)N/N=C\c1ccc(O)c(O)c1 | HIV-1 integrase / human LEDGF/p75 complex | 2.21 µM
C=C(C)C(=O)Nc1cccc(C2=NOC3(C2)C[C@@H](C(N)=O)N(C(=O)C2(C)CC2)C3)c1 (some centres not stated) | HIV-1 integrase / human LEDGF/p75 complex | 2.39 µM
CSc1nc(N(CCO)CCO)c2sc3nc(-c4ccco4)c4c(c3c2n1)CCC4 | HIV-1 integrase / human LEDGF/p75 complex | 4.85 µM
O=C(CCN1C(=O)/C(=C/c2ccco2)SC1=S)Nc1ccc(C(=O)O)c(O)c1 | HIV-1 integrase / human LEDGF/p75 complex | inactive
